Tested on: IFNγ-induced NO production in RAW 264.7 cells
Experiment: Nitric Oxide Suppression Assay (IFNγ-induced NO, Griess nitrite readout)
Format: cell-based, mouse
Settings: Mus musculus, RAW264.7, Table 2; RAW 264.7 cells, 2 h pretreatment, 20 ng/mL interferon gamma 24 h; read-out: Avg NO IC50 (nM) (Mean ± SD)
MEASUREMENT NAME: IC50 (nM)
One number for each entry, in nM.

For every record below, what is its IC50?
1. CC(=O)N(C)C[C@]12CC[C@@H](C)[C@H](C)[C@H]1[C@H]1C(=O)C=C3[C@@]4(C)C=C(C#N)C(=O)C(C)(C)[C@@H]4CC[C@@]3(C)[C@]1(C)CC2 [Compound T35]
2. C[C@@H]1[C@H]2[C@H]3C(=O)C=C4[C@@]5(C)C=C(C#N)C(=O)C(C)(C)[C@@H]5CC[C@@]4(C)[C@]3(C)CC[C@@]2(c2nc(CCO)no2)CC[C@H]1C [Compound T5]
3. C[C@@H]1[C@H]2[C@H]3C(=O)C=C4[C@@]5(C)C=C(C#N)C(=O)C(C)(C)[C@@H]5CC[C@@]4(C)[C@]3(C)CC[C@@]2(NC(=O)C(C)(F)F)CC[C@H]1C [Compound T17]
4. C[C@@H]1[C@H]2[C@H]3C(=O)C=C4[C@@]5(C)C=C(C#N)C(=O)C(C)(C)[C@@H]5CC[C@@]4(C)[C@]3(C)CC[C@@]2(c2nc(CN(C)C)no2)CC[C@H]1C [Compound T8]
5. CONC(=O)[C@]12CC[C@@H](C)[C@H](C)[C@H]1[C@H]1C(=O)C=C3[C@@]4(C)C=C(C#N)C(=O)C(C)(C)[C@@H]4CC[C@@]3(C)[C@]1(C)CC2 [Compound T73]

Result string:
1: 5.57; 2: 1.81; 3: 15; 4: 3.33; 5: 23.1

* * *

Field: IC50. Provide a value for each of the molecules that follow.
Tested on: IFNγ-induced NO production in RAW 264.7 cells
Experiment: Nitric Oxide Suppression Assay (IFNγ-induced NO, Griess nitrite readout)
Format: cell-based, mouse
Details: Mus musculus, RAW264.7, Table 2; RAW 264.7 cells, 2 h pretreatment, 20 ng/mL interferon gamma 24 h; read-out: Avg NO IC50 (nM) (Mean ± SD)
Method: Tissue Culture: RAW 264.7, a mouse macrophage cell line, was obtained from American Type Culture Collection (Manassas VA) and maintained in the log phase of growth in Roswell Park Memorial Institute Medium 1640 (RPMI 1640) supplemented with 10% heat inactivated fetal bovine serum and 1% penicillin-streptomycin. […] Nitric Oxide Suppression Assay. […] Afterwards, air bubbles were removed using ethanol vapor and absorbance was measured using a Spectramax M2e plate reader with a wavelength set to 525 nm. […]
Give bare numbers, in nM.

Below are worked cases with known answers.
COCc1noc([C@]23CC[C@@H](C)[C@H](C)[C@H]2[C@H]2C(=O)C=C4[C@@]5(C)C=C(C#N)C(=O)C(C)(C)[C@@H]5CC[C@@]4(C)[C@]2(C)CC3)n1 [Compound T3] | 5.1
C[C@@H]1[C@H]2[C@H]3C(=O)C=C4[C@@]5(C)C=C(C#N)C(=O)C(C)(C)[C@@H]5CC[C@@]4(C)[C@]3(C)CC[C@@]2(C=O)CC[C@H]1C [Compound T83] | 4.43
Cc1nnc([C@]23CC[C@@H](C)[C@H](C)[C@H]2[C@H]2C(=O)C=C4[C@@]5(C)C=C(C#N)C(=O)C(C)(C)[C@@H]5CC[C@@]4(C)[C@]2(C)CC3)o1 [Compound T69] | 16.9
C[C@@H]1[C@H]2[C@H]3C(=O)C=C4[C@@]5(C)C6O[C@@]6(C#N)C(=O)C(C)(C)[C@@H]5CC[C@@]4(C)[C@]3(C)CC[C@@]2(NC(=O)C(C)(F)F)CC[C@H]1C (stereo partly shown) [Compound T100] | 60.6
C[C@@H]1[C@H]2[C@H]3C(=O)C=C4[C@@]5(C)C=C(C#N)C(=O)C(C)(C)[C@@H]5CC[C@@]4(C)[C@]3(C)CC[C@@]2(CO)CC[C@H]1C [Compound T13] | 1.86
CCNC(=O)CC[C@]12CC[C@@H](C)[C@H](C)[C@H]1[C@H]1C(=O)C=C3[C@@]4(C)C=C(C#N)C(=O)C(C)(C)[C@@H]4CC[C@@]3(C)[C@]1(C)CC2 [Compound T79] | 4.5

Dear colleague, could you send me IC50 for each of the items below? Thanks.
1. CC(=O)OCCNC[C@]12CC[C@@H](C)[C@H](C)[C@H]1[C@H]1C(=O)C=C3[C@@]4(C)C=C(C#N)C(=O)C(C)(C)[C@@H]4CC[C@@]3(C)[C@]1(C)CC2 [Compound T43]
2. C[C@@H]1[C@H]2[C@H]3C(=O)C=C4[C@@]5(C)C=C(C#N)C(=O)C(C)(C)[C@@H]5CC[C@@]4(C)[C@]3(C)CC[C@@]2(CC(=O)O)CC[C@H]1C [Compound T89]
3. C[C@@H]1[C@H]2[C@H]3C(=O)C=C4[C@@]5(C)C=C(C#N)C(=O)C(C)(C)[C@@H]5CC[C@@]4(C)[C@]3(C)CC[C@@]2(c2nc(CO)no2)CC[C@H]1C [Compound T10]
4. C[C@@H]1[C@H]2[C@H]3C(=O)C=C4[C@@]5(C)C=C(C#N)C(=O)C(C)(C)[C@@H]5CC[C@@]4(C)[C@]3(C)CC[C@@]2(CN2CCNC2=O)CC[C@H]1C [Compound T45]

Result string:
[15.9, 14.6, 2.08, 8.79]

* * *

System: Nrf2 / ARE-dependent luciferase in AREc32 reporter cell line
Test: AREc32 luciferase reporter activation (Nrf2 induction)
Type: cell-based, human
Conditions: Table 2; ratio to RTA402
Provide the recorded Relative Avg AREc32 EC2X Relative to RTA402 (fold) for the entries that follow.
Answers are plain numbers, in fold.

For each of the compounds below, note its Relative Avg AREc32 EC2X Relative to RTA402 (fold).
1. CONC(=O)[C@]12CC[C@@H](C)[C@H](C)[C@H]1[C@H]1C(=O)C=C3[C@@]4(C)C=C(C#N)C(=O)C(C)(C)[C@@H]4CC[C@@]3(C)[C@]1(C)CC2
2. C[C@@H]1[C@H]2[C@H]3C(=O)C=C4[C@@]5(C)C=C(C#N)C(=O)C(C)(C)[C@@H]5CC[C@@]4(C)[C@]3(C)CC[C@@]2(C(=O)N2CCC2)CC[C@H]1C
3. COC(=O)NC[C@]12CC[C@@H](C)[C@H](C)[C@H]1[C@H]1C(=O)C=C3[C@@]4(C)C=C(C#N)C(=O)C(C)(C)[C@@H]4CC[C@@]3(C)[C@]1(C)CC2
4. C[C@@H]1[C@H]2[C@H]3C(=O)C=C4[C@@]5(C)C=C(C#N)C(=O)C(C)(C)[C@@H]5CC[C@@]4(C)[C@]3(C)CC[C@@]2(c2nc(C3CC3)no2)CC[C@H]1C
5. CC(=O)OCCNC[C@]12CC[C@@H](C)[C@H](C)[C@H]1[C@H]1C(=O)C=C3[C@@]4(C)C=C(C#N)C(=O)C(C)(C)[C@@H]4CC[C@@]3(C)[C@]1(C)CC2
6. COCc1noc([C@]23CC[C@@H](C)[C@H](C)[C@H]2[C@H]2C(=O)C=C4[C@@]5(C)C=C(C#N)C(=O)C(C)(C)[C@@H]5CC[C@@]4(C)[C@]2(C)CC3)n1
7. CNC(=O)CC[C@]12CC[C@@H](C)[C@H](C)[C@H]1[C@H]1C(=O)C[C@@H]3[C@@]4(C)C=C(C#N)C(=O)C(C)(C)[C@@H]4CC[C@@]3(C)[C@]1(C)CC2

Result string:
0.681
1.78
0.27
3.41
0.8
0.598
3.15

* * *

Test system: Nrf2 / ARE-dependent luciferase in AREc32 reporter cell line
Assay: AREc32 luciferase reporter activation (Nrf2 induction)
Type: cell-based, human
Conditions: Table 2; ratio to RTA402
Label 1.0 for high-side Relative Avg AREc32 EC2X Relative to RTA402 (fold) (at or above 0.4 fold) and 0.0 for low-side Relative Avg AREc32 EC2X Relative to RTA402 (fold) (below it).

CC(=N)NOC(=O)[C@]12CC[C@@H](C)[C@H](C)[C@H]1[C@H]1C(=O)C=C3[C@@]4(C)C=C(C#N)C(=O)C(C)(C)[C@@H]4CC[C@@]3(C)[C@]1(C)CC2 | 1.0
C[C@@H]1[C@H]2[C@H]3C(=O)C=C4[C@@]5(C)C6O[C@@]6(C#N)C(=O)C(C)(C)[C@@H]5CC[C@@]4(C)[C@]3(C)CC[C@@]2(NC(=O)C(C)(F)F)CC[C@H]1C (stereo partly shown) | 1.0
C[C@@H]1[C@H]2[C@H]3C(=O)C=C4[C@@]5(C)C=C(C#N)C(=O)C(C)(C)[C@@H]5CC[C@@]4(C)[C@]3(C)CC[C@@]2(N2CCCC2=O)CC[C@H]1C | 1.0
C[C@@H]1[C@H]2[C@H]3C(=O)C=C4[C@@]5(C)C=C(C#N)C(=O)C(C)(C)[C@@H]5CC[C@@]4(C)[C@]3(C)CC[C@@]2(CN2CCOC2)CC[C@H]1C | 1.0
C[C@@H]1[C@H]2[C@H]3C(=O)C=C4[C@@]5(C)C=C(C#N)C(=O)C(C)(C)[C@@H]5CC[C@@]4(C)[C@]3(C)CC[C@@]2(CC(=O)N2CCC2)CC[C@H]1C | 1.0

--- query ---
Query string: # bool: Relative Avg AREc32 EC2X Relative to RTA402 (fold) of C[C@@H]1[C@H]2[C@H]3C(=O)C=C4[C@@]5(C)C=C(C#N)C(=O)C(C)(C)[C@@H]5CC[C@@]4(C)[C@]3(C)CC[C@@]2(CNS(C)(=O)=O)CC[C@H]1C >= 0.4 fold
Result string: 0.0

Origin of the recorded values: patent US20240140986A1
